These data points were gathered from patent CN116836268A.

Biological target: Cov-S-His (SARS-CoV-2)
Experiment: SPR, Biacore T200, antibody captured by anti-mouse Fc, Cov-S-His as analyte
VALUE_TYPE: pKd
Worth noting: pKd values are minus log10 of concentrations stated in mol/L.

Study these solved cases before continuing.
{"columns": ["BINDER", "READING"],
 "data": [
  ["S4B3VH-h2+L1B2VK-mIgG2a (antibody, V domains shown) VH: QVQLVQSGAEVKKPGSSVKVSCKASGYIFNSYSIHWVRQAPGQGLEWIGAIYPGNGDTSNSQRFKGKATITADKSASTAYMELSSLRSEDTAVYYCARDGYDDSYGLDYWGQGTTVTVSS VL: DIQMTQSPSSLSASVGDRVTITCRASQNIHNYLDWYQQKPGKAPKLLIYSASSRETGVPSSFSGSGSGTDFTLTISSLQPEDFATYYCQQFQQIPWTFGQGTKVEIKR", 8.52],
  ["S4B3VH-h1+L1B2VK-mIgG2a (antibody, V domains shown) VH: QVQLVQSGAEVKKPGSSVKVSCKASGYIFNSYSIHWVRQAPGQGLEWIGAIYPGNGDTSNSQRFKGRVTITADKSTSTAYMELSSLRSEDTAVYYCARDGYDDSYGLDYWGQGTTVTVSS VL: DIQMTQSPSSLSASVGDRVTITCRASQNIHNYLDWYQQKPGKAPKLLIYSASSRETGVPSSFSGSGSGTDFTLTISSLQPEDFATYYCQQFQQIPWTFGQGTKVEIKR", 8.54],
  ["S4B3VH-h2+S4B3VK-h1-mIgG2a (antibody, V domains shown) VH: QVQLVQSGAEVKKPGSSVKVSCKASGYIFNSYSIHWVRQAPGQGLEWIGAIYPGNGDTSNSQRFKGKATITADKSASTAYMELSSLRSEDTAVYYCARDGYDDSYGLDYWGQGTTVTVSS VL: DIVMTQSPDSLAVSLGERATINCKASQNVGTNVAWYQQKPGQPPKALIYSASYRYSGVPDRFSGSGSGTDFTLTISSLQAEDVAVYFCQQYNSYPLTFGQGTKLEIKR", 7.62]
]}

I am curious: what pKd value has been reported for S4B3VH-h1+S4B3VK-h1-mIgG2a (antibody, V domains shown) VH: QVQLVQSGAEVKKPGSSVKVSCKASGYIFNSYSIHWVRQAPGQGLEWIGAIYPGNGDTSNSQRFKGRVTITADKSTSTAYMELSSLRSEDTAVYYCARDGYDDSYGLDYWGQGTTVTVSS VL: DIVMTQSPDSLAVSLGERATINCKASQNVGTNVAWYQQKPGQPPKALIYSASYRYSGVPDRFSGSGSGTDFTLTISSLQAEDVAVYFCQQYNSYPLTFGQGTKLEIKR ?
7.84

Here is the next binder: S4B3VH-h2+L1C9VK-mIgG2a (antibody, V domains shown) VH: QVQLVQSGAEVKKPGSSVKVSCKASGYIFNSYSIHWVRQAPGQGLEWIGAIYPGNGDTSNSQRFKGKATITADKSASTAYMELSSLRSEDTAVYYCARDGYDDSYGLDYWGQGTTVTVSS VL: DIQLTQSPSTLSASVGDRVTITCRASQNIGGWLAWYQQKPGKAPNLLIYQASTLESGVPSRFSGSGSGTEFTLTISSLQAEDFATYHCQQYSGFPWTFGQGTKVEIKR
8.24

Here is the next binder: S4B3VH-h1+L1C9VK-mIgG2a (antibody, V domains shown) VH: QVQLVQSGAEVKKPGSSVKVSCKASGYIFNSYSIHWVRQAPGQGLEWIGAIYPGNGDTSNSQRFKGRVTITADKSTSTAYMELSSLRSEDTAVYYCARDGYDDSYGLDYWGQGTTVTVSS VL: DIQLTQSPSTLSASVGDRVTITCRASQNIGGWLAWYQQKPGKAPNLLIYQASTLESGVPSRFSGSGSGTEFTLTISSLQAEDFATYHCQQYSGFPWTFGQGTKVEIKR
8.30
